Read-out: Monocyte Chemoattractant Protein-1 (MCP1), CCL2 (gene 6347)
experiment.notes: BSK_3C_MCP1: BioMAP Diversity Plus: 3C Assay for Monocyte Chemoattractant Protein-1 (MCP1) Biomarker Activity (AID 2283017)
run.conditions: primary human endothelial cells (HUVEC); actives raise or lower the signal
Calls of active or inactive are those of the source. Rule for the calls: active = hit-call score of the fitted dose curve at least 0.9, where 1 is the maximum; inactive = score below 0.9.
Choose the fitting class; nothing outside T = active, F = inactive is accepted.

Example entries and their recorded answers appear below.
Nc1nc(N)nc(-c2ccccc2)n1
F
c1ccc2sc(SSN3CCOCC3)nc2c1
T
CCCCCCOC(=O)CCCCC(=O)OCCCCCC
F
COc1ccc(C(=O)c2ccccc2)c(O)c1
T

Each compound tested received a call. Report the one for CC1=CC=C(C(C)C)CC1 .
F

Lookup Fc1ccc(Br)cc1
F

Lookup CC(c1cc(C(C)(C)C)cc(C(C)(C)C)c1O)c1cc(C(C)(C)C)cc(C(C)(C)C)c1O
F

Lookup C=CC(=O)OCCCCCCOC(=O)C=C
T

Lookup CCOC(=O)/C=C\C(=O)OCC
F

Lookup CCCCCCC=O
F

Lookup Oc1c(Cl)cc(Cl)c(Cl)c1Cl
T

Lookup CCC1(C)C(=O)N(Cl)C(=O)N1Cl (stereo not given)
F

Lookup CCCC(C)C(=O)OCC (stereo not given)
F

Lookup CCNc1nc(NC(C)(C)C)nc(OC)n1
F

Lookup Nc1cccc(N)n1
F
